Assay: soluble on expression in E. coli; label from the status in PepcDB or PDB records
metric: soluble on expression in E. coli

AKGRAGRSKRTEQDHYETDYTTGGESCDELEEDWIREYPPITSDQQRQLYKRNFDTGLQEYKSLQSVLDEINKELSRLDKELDDYREESEEYMAAADEYNRLKQVKGSADYKSKKNHCKQLKSKLSHIKKMVGDYDRQKT	soluble
MSIYEYFVKLHRYLLWQTKKIRALERRLHALEARLREMEAQPRTSIERIEYKFDQLKVETLEGTLNIGIAPPGAGGTIEDFAVEPVKTVIPKPEPVLMRPIQEKVAAYLNGEASETLKRLEQQYGRRLDDTYRQFILQDIARQTDERIRFYLQEKANHGYVPSGDRDEAVENEIFQKVKADIEQSLDAFLKHLPSKEGST	not soluble
MGSDKIHHHHHHMTTDSSNNRTISSKSTLSSKSIINVGPFTPHIEFIGQQQTPVIIIDDFGADLSQLIDIAIDDSQFNQDQGSYYPGQRAPLPKQYVIDVINAVYQLIYDTYKVPHSLRLKPQQCVFSVIDKPAQRLLPLQCMPHFDTPDPHYFAILHYLNNGDHGDTGFFRHNTTQYEQISPHNIDHYFNQAQPVVDAQQTLMPDYVVDSNDHYTLYHQVHYRPNRLVIYPGNLLHSTLVNPVTDIDSSPKTGRLTANIFINFK	not soluble
MMKPIAVSQLSDNFFETISKEWMLVTAGNKNAFNTMTANWGGIGFLWNKPVVYVFIRPERYTFGFMEKSDYFTLSFLGEENKSIHKICGSKSGREVDKIKETGLKPMITDKGNVLFEQGRLSLECRKLYTDVLRKENFLDPSVYEQWYTTHGGLHHVYVAEITSAWIKD	not soluble
MSLTRQSLQQAAESRRSIYSLNKNLPVGKDEVVQIVEHAVLHTPSSFNSQSARVVVLFGEEHDKVWQFVEDALRAVVPADSFEPTAQKLNLFKAGAATILFYEDQNVVKGLQEQFPAYAANFPVWADQANAMVQYAVWTTLAAVGVGANLQHYNPLPDAAIAKAWNIPENWLLRAQMVIGGIEGAAGEKTFEPVAERLKVFGAEGGSHHHHHH	soluble

What the record says about MAQLFFKYGAMNSGKTIEILKVAHNYEEQDKPVVLMTSGLDTRDGVGKVSSRIGLRRDAIPIFEETNVFDLINDLSYKPFCVLVDECQFLNKHHVIEFARIVDELDIPVMAFGLKNDFRNELFEGSKYLLLYADKLEELKTICWFCHKKATMNLHYIDGNPVYEGDQVQIGGNEAYYPVCRKHYFHPKTVNEEQ : soluble on expression in E. coli is not soluble

What the record says about MDAAKVRSEFDEKMMRYALELADKAEALGEIPVGAVLVDDARNIIGEGWNLSIVQSDPTAHAEIIALRNGAKNIQNYRLLNSTLYVTLEPCTMCAGAILHSRIKRLVFGASDYKTGAIGSRFHFFDDYKMNHTLEVTSGVLAEECSQKLSTFFQKRREEKKIEKALLKSLSDKLEHHHHHH : soluble on expression in E. coli is not soluble
